Each recorded value in this set is attributed to the supplement of paper PMC9170038.

test system: MS2 coat protein; test: apparent KD of MS2 coat protein, switch ON state; designed switch direction (-1 OFF switch, 1 ON switch): -1; higher = weaker reporter binding; conditions: FMN input: 0 or 200 uM; Eterna round: R93 (includes R88 designs)
measurement_name: apparent KD of MS2 coat protein (µM)
Give a bare numeral; the unit µM is implied.

(Q) For the sequence CUCAUGUGAGGAUAUGUACAGAAAAAAAUGGGUGAAACUGUACAGAAGGCACAUGAGGAUCACCCAUGUGCAAA [EX4 377: S S Pseudoknot 2] , what apparent KD of MS2 coat protein is on record?
(A) 0.0191

***
(Q) For the sequence AACAGGUCAGGAUAUGUGGAAAAAAUAAAAAAAAAUAAAACACAGAAGGGACAUGAGGAUCACCCAUGUAAAUA [Mat - Exclusion 4 - Mayanna - D142] , what apparent KD of MS2 coat protein is on record?
(A) 0.0687

(Q) Cool, now AAAGGACGAGGAUAUACAUGAGGAUCACCCAUGUAAAAAGCGUAGUAAAAGAACUUAUGUAGAAGGCGUCCAAA [Meechl Ex3 2 R2 v3]
(A) 0.0594

(Q) Cool, now AAAAAGUGAGGAUAUACAUGAGGAUCACCCAUGUGUAUAAAAAAUUACACAAAAGAAUGUAGAAGGCACUAAAA [JL Mayanne Mod Summer]
(A) 0.0235

(Q) Cool, now AAUUCACAUGAGGAUCACCCAUGUAAGGAUAUCGAAAUAAAACUAAUCAAAAAACAAACGAGAAGGUACAAAAA [Exclusion 1 design 7]
(A) 0.0236

(Q) Cool, now AAUAAGUGAGGAUAUGGAAAUAAUAAAUAAAAUACCCUAAACCAGAAGGCACAUGAGGAUCACCCAUGUAAAUA [JR_Exc004_Sub003]
(A) 0.0341

====

test system: MS2 coat protein; assay: apparent KD of MS2 coat protein; higher = weaker reporter binding; conditions: Eterna round: R101; input ligand: FMN 200 uM
Rule: apparent KD of MS2 coat protein of 50 nM or more gives y; anything lower gives n.

Consider the following illustrative entries.
(Q) Identify whether the reported apparent KD of MS2 coat protein of the following sequence is 50 nM or greater: ACACGUCGUGAGAAGGAGGAUCACCCUUUCGAAAGAAAUAGCCACCGUGAAAACGGUGGCAAAUCUUAGGAUAUCACGACGUGA [#SharedSequence - IExNG2: 5] (puzzle (switch architecture): Inverted Exclusion NG 2)
(A) y

(Q) Cool, now GUCGGAAACGACAAGUCAGCUCGUGAGGAUAUACAUAAAUUAAAGAUCACAUGAGGAUCACCCAUGUAGAAGGCACGAGCUGAU [#StaticStemDeletion - ENG2/2-A2] (puzzle (switch architecture): Small Loop Exclusion NG 3)
(A) y

***
(Q) Identify whether the reported apparent KD of MS2 coat protein of the following sequence is 50 nM or greater: GUGCUUGUCGAAGGAUAUGGUUACAUGAGGAUCACCCAUGUUAUGCUUGGUUACUUGUUUAGUUUCCAGAAGGUCGAUUAGUUG [salish99_ExNG2_001 #Hinge] (puzzle (switch architecture): Exclusion NG 2)
(A) y

(Q) Cool, now UAUAACGAAAGAGGAUAUAUCGGCCGUCUACGGAUAGAAGGCUUUCGCUAUGGCACUGAUGAUCUACAUGAGGAUCACCCAUGU [EternaBot731] (puzzle (switch architecture): Exclusion NG 1)
(A) n

(Q) Cool, now UAUUCUUUGUUAGGAUAUGGGCCCACCCACCCACAAAGUGGGUGGGUGGGCCCAGAAGGAACAUGAGGAUCACCCAUGUAGGCC [#Aaaddddeeeeeeennnniiiinneeeee!] (puzzle (switch architecture): Small Loop Exclusion NG 1)
(A) y
